Provide the reported protease stability score of each item.
assay: protease stability score; higher = more stable; yeast display proteolysis, trypsin and chymotrypsin;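 note: log10 excess protease needed over predicted unfolded state with 0 meaning unfolded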
Respond numerically, and do not add a unit to the figure.

# lookup: protease stability score of DEEKVFQVLVKMVQYYVSGDAEKVKKLGKDDAKVKAVDVEYRGLEQVEKAVEQFKRYGVKLQLTDHKEDGDRVDAKLVLHLGGTTWEFRVTVRADGGKVDELKVEVSDEVMKRIQDG
0.471

# lookup: protease stability score of DEDQQRKWEDWERHLRQNNEEKLVEMFDPNAKWVIGDKRWHGMEEAASKLATRVKNLHIEIRSMRVKVDGDTVEIDVLVTYTHNGQPSEKREILYIHAHNGEVKKVHFEDRE
0.412

# lookup: protease stability score of DEHKHAEQHVKELIDALETGDPEKVRKNADEDVSAVYGDTTLQGTDQVVKAVHDIRNRYDSVRVEIKTVHIQNGRVVVTATVVLNQNGKNDTVSANIQLKVDNGRFKLVHDQLG
0.739

* * *

Provide the reported protease stability score of each item.
assay: protease stability score; higher = more stable; yeast display proteolysis, trypsin and chymotrypsin;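 note: log10 excess protease needed over predicted unfolded state with 0 meaning unfolded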
Respond numerically, and do not add a unit to the figure.

# lookup: protease stability score of KEETVKTLWERMVEAVQKGDKEKVKKLGKDNVNARYNGKEYQGREELAKMLDKFKRKGAEFELKQVHVEGNTVKAEIEVHAAGTTQHVEVEAKYDGGQVEEVVVKISEEVQEMYKKG
0.551

# lookup: protease stability score of DKDDLRRMHQLVTRNNPQKFKQQADKDAKVQYGDKTVTGMTDAARQMVKFWRQADHIEVKHVDVNGDKLNVVMRMNVNGRNLHMVVYYVVSNGHVRSASVTFTDPHQQEEFEKNAS
0.316

# lookup: protease stability score of DEESQKQMMKEMSDVWKHNDPDEAQKLADKDVKIRYGDREYHGREDFVSAMREFSKQADSITVKHMTVQGDKIVLDIIIQYDGQHREIVVIVHVHNGRIQELQIQDG
0.637

# lookup: protease stability score of DEDKLTRVEDFLRLQEQNNEDELLKQMDPNATQRYGNKHVHGSSEVKRFLHRLHREMRIRVEMKSVEVHGDEVVMKADFSKTFNGRPETLTATVVFKVHNGRIQKIIFEERK
1.41

# lookup: protease stability score of DEEERSKLAERLVKAVQNNDEDSLLDNIDKNARVVVGEKTYHGRENARHAMQQFDEDVDHLQVRTFEVHGEHIRIQFEVNINGHTHTVVLDAEVKNGKLTDVKFDPDDMRKATS
0.14

# lookup: protease stability score of DQTDEAEKWMEHITRVLHHNDTDQMLELADENVKIDIGDKTYHGREQFSQLLRDIAERVDHFSQRIDSIRVNGDKVRIDFKNVLDHNGRKHSQQVVVEINRTNGQWRLKSLHKK
0.151

* * *

test: protease stability score; higher = more stable; yeast display proteolysis, trypsin and chymotrypsin;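 note: log10 excess protease needed over predicted unfolded state with 0 meaning unfolded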
# protease stability score >= 0.2 gives 1 (yes), anything below gives 0 (no)

Is reported protease stability score greater than or equal to 0.2 here: DEKKTKELLKEAMKALHNGNEEKVKKLGGPDVEVHAFNYRNRGPEAMVEMARLAQRVGTEFQYREERFEGNRVKTVVEVTVGGDTVRYEVQATVEGGEVKRWEAHVDEKFIEHVEKS
0 (no)

Is reported protease stability score greater than or equal to 0.2 here: DEEKRKHAREILKVEETGNPDDLKELFDPNAKFEYGDKTFHGMTDFRQHHERVRKEMHIDIKSVSVSVHNGQAQVDVQYEHEHNGRPDSKRANRTFDIRNGRVQSATQKDDQ
0 (no)

Is reported protease stability score greater than or equal to 0.2 here: DEEDEDWAEKVATTGNFDEAARDADQNATVKVGDKTWHGREEVTRAMDLLEKQADHVRVSRFKVENGEVNFHVVIEFNGNEIDVTANARFRNGRLTYFSIDARSEHESKSLQKLLE
1 (yes)

Is reported protease stability score greater than or equal to 0.2 here: DEKTKAKQLADTLKRLAESGDFVRIAQLFDENARLNYGDKTVHGREQAEDQAKKIHDQIDHMELELKSVSVNENSVQISMEVVWHHNGNHHRFEVVVRIDVDENKNRARNADYQ
1 (yes)

Is reported protease stability score greater than or equal to 0.2 here: DQSELRDFVEEFLEIFRHGNEDDARRLVDKDATAKVGDKTYNGEEQVLDFLKQLRNRADHVQIDTFRVEGDKMEAHMRLNVNGKTVQVVIQAEVRNGRIKHFRMDPNDLRKLEK
1 (yes)

Is reported protease stability score greater than or equal to 0.2 here: DTEVIHVLKRIMHAINEGDESQVRKNADPNVKVRVGNKSIHGREQLVEQMRRDVEEIRLEYKSFDAKDSDGHARARVKYQNEFNGKPQEKDDRATAVAHNGHLKSIRWRVPEDDLRDQDT
0 (no)

Is reported protease stability score greater than or equal to 0.2 here: DDDEVRKAMRAVTNFFKGNPDQVMELIDPNAHIQVGDKSVTGREQARHLVKDVKEEQQFDVQSVDARDHGSKIVINVRFEVRHNGQPREKFMVLEMSVHNGKIQEMRVRTDS
1 (yes)

Is reported protease stability score greater than or equal to 0.2 here: DDDQRKDYERFLRWQEENDPRKVAEQADPNARFRYGDKHVQGREEQSRRFDEQRKDARWDLDIKRVNVEGNKITVHFKMQMDRNGKPDSRDATRTIEYDNGRIQRDEVKVSS
0 (no)

Is reported protease stability score greater than or equal to 0.2 here: DEEAQKKVEEWERAIEHGNEQQARELADKDVRIEVGDQRVRGMEDIARTQVRKQREITRHVRRFDAHATGDKIRVELVFEVHHDGQPRHQKYELRMVMHNGRVHSVRVETRR
1 (yes)

Is reported protease stability score greater than or equal to 0.2 here: DEDAYRKLDTFKKVEEKGDTDRLRKLADPNVEIQVGDRQIRGMHHFAKDVHDKKRHIDIDVHIDEYDVDGNKIQIHAHNKQHVNGKPFNFTVVMWVRIHNGSIKKMKYRIDPDQLRKIRR
1 (yes)

Is reported protease stability score greater than or equal to 0.2 here: DEDHLKDANRRVVHALEHGDPDEFMNMADKDVQIEIGDTVVEGSHKLKEWAEDLHNRVDHIEILKVDLQGDTLNLNVRMRSNGHNRNAVLHVRVHNGKIQSLRMKDN
1 (yes)
